The origin of these recorded values is ChEMBL document CHEMBL4138277.

- System: MDA-MB-231
- TEST_PROTOCOL: Cytotoxicity against human MDA-MB-231 cells after 48 hrs by MTT assay
- Type: functional, cell-based
- CONDITIONS: MDA-MB-231, 48 h
Non-standard residues stand in square brackets, D forms with d. Residues, ends and D or L forms follow the SMILES beside them. *: point of attachment. Leu(ol) = CC(C)C[C@H](N)CO; dIva = CC[C@@](C)(N)C(=O)O; Octanoyl = CCCCCCCC(=O)*; Aib = CC(C)(N)C(=O)O
Reported IC50 values are given for each entry in this list.
Give just the number in µM; leave the unit off.

Look over these answered cases.
COMPOUND	IC50 / µM
CCCCCCCC(=O)NCC(=O)N[C@@H](C)C(=O)N[C@@H](CC(C)C)C(=O)N[C@](C)(CC)C(=O)N[C@@H](C)C(=O)N[C@H](C(=O)N[C@H](CO)CC(C)C)[C@@H](C)CC (Octanoyl-GAL[dIva]AI[Leu(ol)])	5
CCCCCCCC(=O)NCC(=O)N[C@@H](C)C(=O)N[C@@H](CC(C)C)C(=O)NC(C)(C)C(=O)N[C@@H](C)C(=O)N[C@H](C(=O)N[C@H](CO)CC(C)C)[C@@H](C)CC (Octanoyl-GAL[Aib]AI[Leu(ol)])	16

Moving on to another compound below.
IC50 for CCCCCCCC(=O)NCC(=O)N[C@@H](C)C(=O)N[C@@H](CC(C)C)C(=O)N[C@](C)(CC)C(=O)N[C@@H](CO)C(=O)N[C@H](C(=O)N[C@H](CO)CC(C)C)[C@@H](C)CC is 4

----------
Measured IC50 accompanies every entry in the list below.
- Tested on: A549
- TEST_PROTOCOL: Cytotoxicity against human A549 cells after 48 hrs by MTT assay
- Format: functional, cell-based
- CONDITIONS: A549, 48 h
Non-standard residues stand in square brackets, D forms with d. Residues, ends and D or L forms follow the SMILES beside them. *: point of attachment. Leu(ol) = CC(C)C[C@H](N)CO; dIva = CC[C@@](C)(N)C(=O)O; Octanoyl = CCCCCCCC(=O)*; Aib = CC(C)(N)C(=O)O
Express the result in µM but write the number alone.

Examples from the recorded data:
COMPOUND	ASSAYED_TARGET	IC50 / µM
CCCCCCCC(=O)NCC(=O)N[C@@H](C)C(=O)N[C@@H](CC(C)C)C(=O)NC(C)(C)C(=O)N[C@@H](C)C(=O)N[C@H](C(=O)N[C@H](CO)CC(C)C)[C@@H](C)CC (Octanoyl-GAL[Aib]AI[Leu(ol)])	A549	17
CCCCCCCC(=O)NCC(=O)N[C@@H](C)C(=O)N[C@@H](CC(C)C)C(=O)N[C@](C)(CC)C(=O)N[C@@H](CO)C(=O)N[C@H](C(=O)N[C@H](CO)CC(C)C)[C@@H](C)CC	A549	30
CCCCCCCC(=O)NCC(=O)N[C@@H](C)C(=O)N[C@@H](CC(C)C)C(=O)NC(C)(C)C(=O)N[C@@H](CO)C(=O)N[C@H](C(=O)N[C@H](CO)CC(C)C)[C@@H](C)CC (Octanoyl-GAL[Aib]SI[Leu(ol)])	A549	30

Now for the compound whose IC50 we want.
In plain terms, CCCCCCCC(=O)NCC(=O)N[C@@H](C)C(=O)N[C@@H](CC(C)C)C(=O)N[C@](C)(CC)C(=O)N[C@@H](C)C(=O)N[C@H](C(=O)N[C@H](CO)CC(C)C)[C@@H](C)CC (Octanoyl-GAL[dIva]AI[Leu(ol)]) has a documented IC50 of 4

----------
- Test system: LS180
- TEST_PROTOCOL: Cytotoxicity against human LS180 cells after 48 hrs by MTT assay
- Assay type: functional, cell-based
- CONDITIONS: LS180, 48 h
Non-standard residues stand in square brackets, D forms with d. Residues, ends and D or L forms follow the SMILES beside them. *: point of attachment. Leu(ol) = CC(C)C[C@H](N)CO; dIva = CC[C@@](C)(N)C(=O)O; Octanoyl = CCCCCCCC(=O)*
Recorded IC50 by entry
# output: bare number, implied unit µM

COMPOUND	MEASUREMENT_UNITS	IC50
CC(=O)O[C@H]1C(=O)[C@@]2(C)[C@H]([C@H](OC(=O)c3ccccc3)[C@]3(O)C[C@H](OC(=O)[C@H](O)[C@@H](NC(=O)c4ccccc4)c4ccccc4)C(C)=C1C3(C)C)[C@]1(OC(C)=O)CO[C@@H]1C[C@@H]2O [PACLITAXEL]	µM	0.0028

Response field IC50 (LS180) for item CCCCCCCC(=O)NCC(=O)N[C@@H](C)C(=O)N[C@@H](CC(C)C)C(=O)N[C@](C)(CC)C(=O)N[C@@H](C)C(=O)N[C@H](C(=O)N[C@H](CO)CC(C)C)[C@@H](C)CC (Octanoyl-GAL[dIva]AI[Leu(ol)]) : 7

----------
- System: HL-60
- TEST_PROTOCOL: Cytotoxicity against human HL60 cells after 48 hrs by MTT assay
- Format: functional, cell-based
- CONDITIONS: HL-60, 48 h
Non-standard residues stand in square brackets, D forms with d. Residues, ends and D or L forms follow the SMILES beside them. *: point of attachment. Leu(ol) = CC(C)C[C@H](N)CO; dIva = CC[C@@](C)(N)C(=O)O; Octanoyl = CCCCCCCC(=O)*; Aib = CC(C)(N)C(=O)O
OBSERVABLE: pIC50
Remember, pIC50 is on a log scale: it is -log10 of the molar concentration.

Per the record, CCCCCCCC(=O)NCC(=O)N[C@@H](C)C(=O)N[C@@H](CC(C)C)C(=O)N[C@](C)(CC)C(=O)N[C@@H](C)C(=O)N[C@H](C(=O)N[C@H](CO)CC(C)C)[C@@H](C)CC (Octanoyl-GAL[dIva]AI[Leu(ol)]) has pIC50 of 5.40

The value of pIC50 measured for the compound CCCCCCCC(=O)NCC(=O)N[C@@H](C)C(=O)N[C@@H](CC(C)C)C(=O)N[C@](C)(CC)C(=O)N[C@@H](CO)C(=O)N[C@H](C(=O)N[C@H](CO)CC(C)C)[C@@H](C)CC turned out to be 5.70

// pIC50 lookup, compound = CCCCCCCC(=O)NCC(=O)N[C@@H](C)C(=O)N[C@@H](CC(C)C)C(=O)NC(C)(C)C(=O)N[C@@H](C)C(=O)N[C@H](C(=O)N[C@H](CO)CC(C)C)[C@@H](C)CC (Octanoyl-GAL[Aib]AI[Leu(ol)]) , result: 4.80

----------
- Test system: LS180
- TEST_PROTOCOL: Cytotoxicity against human LS180 cells after 48 hrs by MTT assay
- Assay type: functional, cell-based
- CONDITIONS: LS180, 48 h
Non-standard residues stand in square brackets, D forms with d. Residues, ends and D or L forms follow the SMILES beside them. *: point of attachment. Leu(ol) = CC(C)C[C@H](N)CO; Octanoyl = CCCCCCCC(=O)*; Aib = CC(C)(N)C(=O)O
We begin with a simple list: items and their reported IC50.

Answered examples (2):
COMPOUND	IC50
CCCCCCCC(=O)NCC(=O)N[C@@H](C)C(=O)N[C@@H](CC(C)C)C(=O)N[C@](C)(CC)C(=O)N[C@@H](CO)C(=O)N[C@H](C(=O)N[C@H](CO)CC(C)C)[C@@H](C)CC	> 30 µM
CCCCCCCC(=O)NCC(=O)N[C@@H](C)C(=O)N[C@@H](CC(C)C)C(=O)NC(C)(C)C(=O)N[C@@H](C)C(=O)N[C@H](C(=O)N[C@H](CO)CC(C)C)[C@@H](C)CC (Octanoyl-GAL[Aib]AI[Leu(ol)])	> 30 µM

Now for the compound whose IC50 we want.
Reported IC50 for CCCCCCCC(=O)NCC(=O)N[C@@H](C)C(=O)N[C@@H](CC(C)C)C(=O)NC(C)(C)C(=O)N[C@@H](CO)C(=O)N[C@H](C(=O)N[C@H](CO)CC(C)C)[C@@H](C)CC (Octanoyl-GAL[Aib]SI[Leu(ol)]) was > 30 µM
